- TARGET OR TEST SYSTEM: T1, human TSLP (human, UniProt Q969D9 29-159)
- T1 construct: also called hTSLP; rhTSLP
- MEASUREMENT DESCRIPTION: SPR
READOUT TYPE: kon (M⁻¹ s⁻¹)
Write down the numeric answer in M⁻¹ s⁻¹ and omit the unit.

- BINDER: "BDG38.125 (antibody, V domains shown, IgG1) VH: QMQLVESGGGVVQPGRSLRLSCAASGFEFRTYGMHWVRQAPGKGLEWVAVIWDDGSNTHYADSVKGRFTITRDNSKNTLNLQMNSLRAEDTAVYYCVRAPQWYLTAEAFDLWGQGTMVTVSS VL: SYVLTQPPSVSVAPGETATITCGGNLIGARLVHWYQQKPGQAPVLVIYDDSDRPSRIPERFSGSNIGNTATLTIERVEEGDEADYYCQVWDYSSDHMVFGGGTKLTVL"
  kon, M⁻¹ s⁻¹: "4.76e+06"

Problem: # lookup: kon of BDG38.134 (antibody, V domains shown, IgG1) VH: QMQLVESGGGVVQPGQSLRLSCAASGFEFRTYGMHWVRQAPGKGLEWLAVIWYDGSNTHYADSVKGRFTITRDNSKNTLNLQMNSLRAEDTAVYYCVRAPQWYNSAEAFDLWGQGTMVTVSS VL: SYVLTQPPSVSVAPGQTARITCGGNLIGARLVHWYQQKPGQAPVLVIYDDSDRPSHIPERFSGSNSGNTATLTISRVEAGDEADYYCQVWDYSADTMVFGGGTKLTVL
Solution: 4.86e+06
